- Tested on: differentiated HL-60 cells
- assay-name: ROS production induced by PMA in HL-60 cells differentiated into neutrophil cells (L-012 luminescence)
- Assay type: cell-based, human
- experimental-conditions: Homo sapiens, HL-60, synthetic example compounds 0.5 uM, read-out: ROS production inhibitory effect
Provide the reported inhibition at 0.5 µM of each item.

# query: inhibition at 0.5 µM of entry O=C(O)c1ccc(-n2nc3c(c2O)CCN(Cc2ccccc2)C3)cc1
> 70%

I have this compound here, C#CCN1CCc2c(nn(-c3ccccn3)c2O)C1 , and I need its recorded inhibition at 0.5 µM.
< 30%

Value lookup for inhibition at 0.5 µM; key = Cc1ccc(CN2CCc3c(nn(-c4ccccn4)c3O)C2)cc1
30 to 50%

What does the record list as inhibition at 0.5 µM for N#Cc1ccc(CN2CCc3c(nn(-c4ccccn4)c3O)C2)cc1 ?
50 to 70%

---

- Tested on: differentiated HL-60 cells
- assay-name: ROS production induced by PMA in HL-60 cells differentiated into neutrophil cells (L-012 luminescence)
- Format: cell-based, human
- experimental-conditions: Homo sapiens, HL-60, synthetic example compounds 0.5 uM, read-out: ROS production inhibitory effect
observation-type: inhibition at 0.5 µM

What value of inhibition at 0.5 µM has been reported for the following compound? O=C(NC1CCCCC1)N1CCc2c(nn(-c3ccccn3)c2O)C1
< 30%

Given the entry Oc1c2c(nn1-c1ccccc1)CN(Cc1ccccc1)CC2 , report its measured inhibition at 0.5 µM.
> 70%

Item under review: Oc1c2c(nn1-c1ccc(Br)cc1)CN(Cc1ccccc1)CC2 . Reported inhibition at 0.5 µM?
> 70%

What does the record list as inhibition at 0.5 µM for O=S(=O)(c1ccccc1)N1CCc2c(nn(-c3ccccn3)c2O)C1 ?
50 to 70%

Can you look up the measured inhibition at 0.5 µM of Oc1c2c(nn1-c1ccc(C(F)(F)F)cn1)CCN(Cc1cccc(C(F)(F)F)c1)C2 for me?
30 to 50%

Item CCN1CCc2c(nn(-c3ccccn3)c2O)C1 has what recorded inhibition at 0.5 µM?
< 30%

Please give the measured inhibition at 0.5 µM for this compound: Oc1c2c(nn1-c1ccc(C(F)(F)F)cn1)CCN(Cc1ccccc1)C2
< 30%
